test system: Candida albicans; test: Microbicidal activity against Candida albicans ATCC 10231 assessed as inhibition of colony growth incubated for 48 hrs followed by replating and further incubated for 48 hrs; format: functional; details: ATCC 10231, 48 h
Recorded Metric: MBC (µM)
Dear colleague, please return just the value in µM, with no unit written.

[ask] Find the recorded MBC belonging to CC(=O)N[C@@H](CCCCN)c1nc(C)sc1C(=O)N[C@@H](CC(C)C)c1nc(CCCCN)sc1C(=O)N[C@@H](C)c1nc(CC(C)C)sc1C(=O)N[C@@H](CCCCN)c1nc(C)sc1C(=O)N[C@@H](CC(C)C)c1nc(CCCCN)sc1C(=O)N[C@@H](C)c1nc(CC(C)C)sc1C(=O)N[C@@H](CCCCN)c1nc(C)sc1C(=O)N[C@@H](CC(C)C)c1nc(CCCCN)sc1C(=O)N[C@@H](C)c1nc(CC(C)C)sc1C(=O)N[C@@H](CCCCN)c1nc(C)sc1C(=O)N[C@@H](CC(C)C)c1nc(CCCCN)sc1C(=O)N[C@@H](C)c1nc(CC(C)C)sc1C(N)=O and report it.
[reply] 25
